Exercise: state measured Ki for each of the compounds provided.
Target protein (sequence): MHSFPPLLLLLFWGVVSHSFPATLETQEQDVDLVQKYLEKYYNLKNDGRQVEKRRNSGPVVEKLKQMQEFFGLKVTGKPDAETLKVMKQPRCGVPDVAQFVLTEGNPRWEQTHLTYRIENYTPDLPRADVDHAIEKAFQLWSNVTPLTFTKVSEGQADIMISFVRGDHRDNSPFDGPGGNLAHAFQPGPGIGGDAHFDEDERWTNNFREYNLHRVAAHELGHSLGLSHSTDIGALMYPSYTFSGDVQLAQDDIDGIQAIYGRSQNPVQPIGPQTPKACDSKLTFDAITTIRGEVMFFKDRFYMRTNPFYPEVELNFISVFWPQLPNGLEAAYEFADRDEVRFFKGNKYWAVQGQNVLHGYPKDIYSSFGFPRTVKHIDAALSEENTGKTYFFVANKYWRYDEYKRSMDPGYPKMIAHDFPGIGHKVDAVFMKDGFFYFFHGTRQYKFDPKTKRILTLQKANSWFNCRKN
Please report the result as a number followed by the unit.

Task item: Given CNC(=O)[C@@H](NC(=O)[C@H](c1ccc(OC)cc1)[C@H](CO)C(=O)NO)C(C)(C)C , respond with its Ki.
Reply: 1.1 nM

Task item: Given CNC(=O)[C@@H](NC(=O)[C@H](c1ccccc1)[C@H](CO)C(=O)NO)C(C)(C)C , respond with its Ki.
Reply: 3.5 nM

----------
Exercise: state measured pKi for each of the compounds provided.
tested.system: Disintegrin and metalloproteinase domain-containing protein 17 (Homo sapiens, UniProt P78536)
Sequence (P78536 whole entry, the tested form may be a part): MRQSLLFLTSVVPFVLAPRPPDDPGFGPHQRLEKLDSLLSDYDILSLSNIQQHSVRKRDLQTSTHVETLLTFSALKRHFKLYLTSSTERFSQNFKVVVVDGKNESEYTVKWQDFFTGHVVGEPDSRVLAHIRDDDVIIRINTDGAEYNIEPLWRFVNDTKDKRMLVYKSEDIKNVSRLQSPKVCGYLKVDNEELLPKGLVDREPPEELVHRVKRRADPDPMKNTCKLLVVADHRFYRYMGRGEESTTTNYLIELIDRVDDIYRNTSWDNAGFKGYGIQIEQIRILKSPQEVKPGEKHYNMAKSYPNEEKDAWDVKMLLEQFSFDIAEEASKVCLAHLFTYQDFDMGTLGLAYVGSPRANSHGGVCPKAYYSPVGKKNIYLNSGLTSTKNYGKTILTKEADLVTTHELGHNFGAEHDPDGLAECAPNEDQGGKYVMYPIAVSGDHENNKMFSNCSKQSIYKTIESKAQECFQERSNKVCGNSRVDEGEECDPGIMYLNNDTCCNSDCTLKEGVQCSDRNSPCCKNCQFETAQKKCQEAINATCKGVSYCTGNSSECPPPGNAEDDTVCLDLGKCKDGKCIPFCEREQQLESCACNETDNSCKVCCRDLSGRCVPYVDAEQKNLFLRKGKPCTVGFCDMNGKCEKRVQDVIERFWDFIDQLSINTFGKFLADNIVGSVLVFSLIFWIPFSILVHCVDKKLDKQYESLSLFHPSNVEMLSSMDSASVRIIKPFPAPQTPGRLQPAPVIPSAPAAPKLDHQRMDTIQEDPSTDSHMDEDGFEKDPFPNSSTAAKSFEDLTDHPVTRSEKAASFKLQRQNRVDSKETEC
As a rule, pKi stands for the negative log10 of the concentration, concentration in M.

Task item: Given CNC(=O)[C@@H](NC(=O)[C@H](CC(C)C)[C@H](CO)C(=O)NO)C(C)(C)C , respond with its pKi.
Reply: 7.89

Task item: Given CNC(=O)[C@@H](NC(=O)[C@H](c1ccc(OC)cc1)[C@H](CO)C(=O)NO)C(C)(C)C , respond with its pKi.
Reply: 9.22

Task item: Given CNC(=O)[C@@H](NC(=O)[C@H](c1ccc(C)cc1)[C@H](CO)C(=O)NO)C(C)(C)C , respond with its pKi.
Reply: 8.42

Task item: Given CNC(=O)[C@@H](NC(=O)[C@H](c1ccccc1)[C@H](CO)C(=O)NO)C(C)(C)C , respond with its pKi.
Reply: 8.31

----------
Exercise: state measured IC50 for each of the compounds provided.
tested.system: Tumor necrosis factor (Homo sapiens)
Sequence (P01375 whole entry): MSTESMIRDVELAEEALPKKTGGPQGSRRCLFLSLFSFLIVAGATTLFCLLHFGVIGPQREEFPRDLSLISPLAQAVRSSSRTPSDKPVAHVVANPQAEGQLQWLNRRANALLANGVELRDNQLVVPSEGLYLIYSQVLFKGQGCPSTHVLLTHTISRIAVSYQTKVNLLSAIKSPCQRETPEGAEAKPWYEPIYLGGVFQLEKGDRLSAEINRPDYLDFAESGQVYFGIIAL
assay.comment: Inhibitory activity against tumor necrosis factor alpha (TNF-alpha) production in LPS-stimulated human PBMCs
Give a bare numeral; the unit nM is implied.

Task item: Given CNC(=O)[C@@H](NC(=O)[C@H](CC(C)C)[C@H](O)C(=O)NO)C(C)(C)C , respond with its IC50.
Reply: 1000

Task item: Given CNC(=O)[C@@H](NC(=O)[C@H](c1ccccc1)[C@H](CO)C(=O)NO)C(C)(C)C , respond with its IC50.
Reply: 928

Task item: Given CNC(=O)[C@@H](NC(=O)[C@H](c1ccc(OC)cc1)[C@H](CO)C(=O)NO)C(C)(C)C , respond with its IC50.
Reply: 48

Task item: Given CNC(=O)[C@@H](NC(=O)[C@H](c1ccc(C)cc1)[C@H](CO)C(=O)NO)C(C)(C)C , respond with its IC50.
Reply: 269

Task item: Given CNC(=O)[C@@H](NC(=O)[C@H](CC(C)C)[C@H](CO)C(=O)NO)C(C)(C)C , respond with its IC50.
Reply: 1610
